TEST SYSTEM: nuclear factor-kappa B (NF-kB)-inducing kinase (NIK) (Homo sapiens (Human), UniProt Q99558)
Sequence (Q99558 whole entry): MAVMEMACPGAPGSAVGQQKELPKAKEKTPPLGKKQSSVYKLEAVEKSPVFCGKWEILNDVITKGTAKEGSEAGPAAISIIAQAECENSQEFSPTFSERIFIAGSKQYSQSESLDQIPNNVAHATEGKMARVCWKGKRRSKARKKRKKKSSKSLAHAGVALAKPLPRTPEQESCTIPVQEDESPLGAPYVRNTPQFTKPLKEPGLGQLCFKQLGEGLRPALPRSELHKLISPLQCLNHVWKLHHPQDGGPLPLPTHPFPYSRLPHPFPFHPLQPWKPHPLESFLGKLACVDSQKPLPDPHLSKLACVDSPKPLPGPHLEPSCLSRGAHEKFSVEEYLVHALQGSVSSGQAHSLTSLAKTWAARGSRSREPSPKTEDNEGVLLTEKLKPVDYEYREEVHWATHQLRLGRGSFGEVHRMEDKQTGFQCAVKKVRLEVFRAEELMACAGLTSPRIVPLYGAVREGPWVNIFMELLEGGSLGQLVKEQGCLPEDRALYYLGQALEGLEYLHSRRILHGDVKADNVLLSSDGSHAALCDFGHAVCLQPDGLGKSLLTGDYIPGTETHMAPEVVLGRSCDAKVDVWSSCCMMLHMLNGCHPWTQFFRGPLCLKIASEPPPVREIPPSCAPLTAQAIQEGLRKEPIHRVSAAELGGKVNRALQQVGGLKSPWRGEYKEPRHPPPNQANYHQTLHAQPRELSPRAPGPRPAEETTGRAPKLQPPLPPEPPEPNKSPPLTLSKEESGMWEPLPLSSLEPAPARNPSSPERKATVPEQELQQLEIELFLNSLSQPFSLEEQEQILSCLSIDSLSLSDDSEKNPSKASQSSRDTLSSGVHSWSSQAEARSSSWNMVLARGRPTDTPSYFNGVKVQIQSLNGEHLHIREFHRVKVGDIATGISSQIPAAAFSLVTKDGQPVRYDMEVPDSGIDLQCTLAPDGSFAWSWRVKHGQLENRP
EXPERIMENT: NIK enzyme inhibition assay (Transcreener ADP, NIK ADP-FP)
Type: biochemical
CONDITION DESCRIPTION: purified NIK 0.5 nM, 10 μM ATP, fluorescence polarization; read-out: NIK ADP-FP (Ki μM)
Entries whose Ki is below 0.001 µM take class 1; entries at or above 0.001 µM take class 0.

COMPOUND	GROUP
CN(C)C(=O)C(O)C#Cc1cccc(-n2nc(C(N)=O)c3ccccc32)c1 (centres unmarked)	class 0
CN1CC[C@@](O)(C#Cc2cccc(-n3nc(C(N)=O)c4c3CCCC4)c2)C1=O	class 0
CN1CC[C@@](O)(C#Cc2cccc(-c3nc(C(N)=O)n4ccc(OC5CCC5)cc34)c2)C1=O	class 1
CN1CC[C@@](O)(C#Cc2ccnc(-n3nc(C(N)=O)c4c3CC(C)(C)[C@@H](O)C4)c2)C1=O	class 0
CN1CC[C@@](O)(C#Cc2cccc(-c3nc(C(N)=O)c4ccc(C(N)=O)cn34)c2)C1=O	class 0

Please check: Ki for "C[C@@H]1CCc2c1c(C(N)=O)nn2-c1cccc(C#C[C@]2(O)CCN(C)C2=O)c1" , strictly under 0.001 µM or not?
class 0

Quick check: Ki of "CN1CC[C@@](O)(C#Cc2ccnc(-n3nc(C(N)=O)c4cc(Br)ccc43)c2)C1=O" under 0.001 µM?
class 1

Identify whether the compound "CN1CC[C@@](O)(C#Cc2cccc(-n3nc(C(N)=O)c4c3OCCC4)c2)C1=O" records Ki below 0.001 µM.
class 0

Origin of values: patent US9605005B2
